- Method Description: 4-h oral plasma pharmacokinetics and tissue distribution, male wild-type and Oatp1a/1b−/− mice
- Assay type: in vivo
- Condition Context: male, FVB, mouse, brain, po, 10 mg/kg, Table S2, male wild-type mice, 10 mg/kg oral, read-out: Cbrain
Recorded Metric: concentration at 4 h (ng/g)
Give bare numbers, in ng/g.

Query block: Entry `C[C@H]1CNC(=O)c2cnn3ccc(nc23)N[C@H](C)c2cc(F)ccc2O1` : reported concentration at 4 h = ?
Result block: 95.1

###

- Method Description: 8-h oral plasma pharmacokinetics and tissue distribution, female wild-type, Cyp3a−/− and Cyp3aXAV mice
- Format: in vivo
- Condition Context: female, Cyp3a−/− (>99% FVB background), mouse, brain/plasma, po, 10 mg/kg, female Cyp3a−/− mice, 10 mg/kg oral, 8 h; read-out: Brain-to-plasma ratio
Recorded Metric: Kp at 8 h

Query block: Entry C[C@H]1CNC(=O)c2cnn3ccc(nc23)N[C@H](C)c2cc(F)ccc2O1 [repotrectinib] : reported Kp at 8 h = ?
Result block: 0.22

###

- Method Description: 8-h pilot oral plasma pharmacokinetics and tissue distribution, female wild-type, Abcb1a/1b;Abcg2−/− and Oatp1a/1b−/− mice
- Format: in vivo
- Condition Context: female, FVB, mouse, liver, po, 10 mg/kg, Table S1; female wild-type mice, 10 mg/kg oral, 8 h; read-out: Liver-to-plasma ratio
Recorded Metric: Kp at 8 h
Answers are plain numbers.

Query block: Entry `C[C@H]1CNC(=O)c2cnn3ccc(nc23)N[C@H](C)c2cc(F)ccc2O1` : reported Kp at 8 h = ?
Result block: 5.36

###

- Method Description: 4-h oral plasma pharmacokinetics and tissue distribution, male wild-type and Oatp1a/1b−/− mice
- Type: in vivo
- Condition Context: male, FVB, mouse, testis, po, 10 mg/kg, Table S2, male wild-type mice, 10 mg/kg oral, read-out: Testis-to-plasma ratio
Recorded Metric: Kp at 4 h
One number for each entry.

Query block: Entry `C[C@H]1CNC(=O)c2cnn3ccc(nc23)N[C@H](C)c2cc(F)ccc2O1` : reported Kp at 4 h = ?
Result block: 0.24

###

- Method Description: 4-h oral plasma pharmacokinetics and tissue distribution, male wild-type and Oatp1a/1b−/− mice
- Assay type: in vivo
- Condition Context: male, FVB, mouse, liver, po, 10 mg/kg, Table S2, male Oatp1a/1b−/− mice, 10 mg/kg oral, read-out: Liver-to-plasma ratio
Recorded Metric: Kp at 4 h
Numbers only.

Query block: Entry `C[C@H]1CNC(=O)c2cnn3ccc(nc23)N[C@H](C)c2cc(F)ccc2O1` : reported Kp at 4 h = ?
Result block: 4.3

###

- Method Description: 8-h pilot oral plasma pharmacokinetics and tissue distribution, female wild-type, Abcb1a/1b;Abcg2−/− and Oatp1a/1b−/− mice
- Format: in vivo
- Condition Context: female, FVB, mouse, brain, po, 10 mg/kg, Table S1; female Oatp1a/1b−/− mice, 10 mg/kg oral, 8 h; read-out: Brain-to-plasma ratio
Recorded Metric: Kp at 8 h

Query block: Entry C[C@H]1CNC(=O)c2cnn3ccc(nc23)N[C@H](C)c2cc(F)ccc2O1 [repotrectinib] : reported Kp at 8 h = ?
Result block: 0.48

###

- Method Description: 4-h oral plasma pharmacokinetics and tissue distribution, male wild-type and ABC transporter knockout mice
- Type: in vivo
- Condition Context: male, FVB, mouse, liver, po, 10 mg/kg, male Abcg2−/− mice, 10 mg/kg oral, 4 h; read-out: Cliver
Recorded Metric: concentration at 4 h (ng/g)
Answers are plain numbers, in ng/g.

Query block: Entry C[C@H]1CNC(=O)c2cnn3ccc(nc23)N[C@H](C)c2cc(F)ccc2O1 [repotrectinib] : reported concentration at 4 h = ?
Result block: 6690

###

- Method Description: 4-h oral plasma pharmacokinetics and tissue distribution, male wild-type and ABC transporter knockout mice
- Type: in vivo
- Condition Context: male, FVB, mouse, small intestinal content, po, 10 mg/kg, male Abcb1a/1b−/− mice, 10 mg/kg oral, 4 h; read-out: SIC (%)-to-plasma ratio
Recorded Metric: Kp at 4 h
Numbers only.

Query block: Entry `C[C@H]1CNC(=O)c2cnn3ccc(nc23)N[C@H](C)c2cc(F)ccc2O1` : reported Kp at 4 h = ?
Result block: 0.00186

###

- Study System: endogenous canine ABCB1 (Canis lupus familiaris, UniProt C0KKU9)
- Construct: the low-level endogenous canine ABCB1 present in MDCK-II cells; host or cells: parental MDCK-II cells (canine kidney)
- Sequence (C0KKU9 1-1281): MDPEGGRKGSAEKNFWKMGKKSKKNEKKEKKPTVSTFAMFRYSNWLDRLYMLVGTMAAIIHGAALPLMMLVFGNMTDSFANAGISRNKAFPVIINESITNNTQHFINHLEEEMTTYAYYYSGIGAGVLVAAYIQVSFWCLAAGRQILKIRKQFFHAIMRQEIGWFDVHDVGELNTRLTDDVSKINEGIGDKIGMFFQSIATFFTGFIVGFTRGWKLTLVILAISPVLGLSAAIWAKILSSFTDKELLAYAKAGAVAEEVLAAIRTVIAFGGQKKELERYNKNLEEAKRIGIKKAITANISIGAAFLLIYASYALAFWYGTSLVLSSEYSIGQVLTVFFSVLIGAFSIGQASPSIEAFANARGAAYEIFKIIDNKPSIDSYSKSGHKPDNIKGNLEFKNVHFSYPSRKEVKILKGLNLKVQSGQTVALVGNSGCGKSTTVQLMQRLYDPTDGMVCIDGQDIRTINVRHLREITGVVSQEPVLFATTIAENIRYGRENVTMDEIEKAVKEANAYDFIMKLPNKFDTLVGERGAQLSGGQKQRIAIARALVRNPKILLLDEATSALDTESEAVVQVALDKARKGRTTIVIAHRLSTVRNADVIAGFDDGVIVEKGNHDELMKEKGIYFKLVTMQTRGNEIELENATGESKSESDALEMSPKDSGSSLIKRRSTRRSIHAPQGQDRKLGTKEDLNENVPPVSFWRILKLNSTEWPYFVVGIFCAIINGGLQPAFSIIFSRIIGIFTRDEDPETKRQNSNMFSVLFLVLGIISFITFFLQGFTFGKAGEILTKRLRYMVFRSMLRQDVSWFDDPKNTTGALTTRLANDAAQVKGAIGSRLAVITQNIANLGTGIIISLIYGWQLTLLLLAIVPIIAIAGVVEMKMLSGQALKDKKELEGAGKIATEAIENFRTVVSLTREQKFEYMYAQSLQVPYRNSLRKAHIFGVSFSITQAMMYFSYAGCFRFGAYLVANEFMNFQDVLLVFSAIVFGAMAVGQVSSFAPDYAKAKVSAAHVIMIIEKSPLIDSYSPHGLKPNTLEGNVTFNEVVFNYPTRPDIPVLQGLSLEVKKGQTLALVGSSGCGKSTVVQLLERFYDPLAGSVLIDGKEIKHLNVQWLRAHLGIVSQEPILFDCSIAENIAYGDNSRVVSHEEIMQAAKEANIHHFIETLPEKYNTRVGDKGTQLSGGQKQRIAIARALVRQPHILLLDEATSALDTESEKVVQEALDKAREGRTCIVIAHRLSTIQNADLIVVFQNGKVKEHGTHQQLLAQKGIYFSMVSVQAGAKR
- Method Description: Transepithelial transport, parental MDCK-II cells
- Format: in vitro ADME
- Condition Context: dog, pH 7.4, repotrectinib 5 µM, no inhibitor, read-out: efflux transport ratio r
Recorded Metric: efflux ratio at 8 h, 5 µM
Numbers only.

Query block: Entry `C[C@H]1CNC(=O)c2cnn3ccc(nc23)N[C@H](C)c2cc(F)ccc2O1` : reported efflux ratio at 8 h, 5 µM = ?
Result block: 2.5

###

- Method Description: 2-h oral plasma pharmacokinetics and tissue distribution, male wild-type and Oatp1a/1b−/− mice
- Type: in vivo
- Condition Context: Oatp1a/1b−/− (>99% FVB background), mouse, small intestine with content, male Oatp1a/1b−/− mice, 10 mg/kg oral, read-out: CSIWC
Recorded Metric: concentration at 2 h (ng/g)
One number for each entry, in ng/g.

Query block: Entry `C[C@H]1CNC(=O)c2cnn3ccc(nc23)N[C@H](C)c2cc(F)ccc2O1` : reported concentration at 2 h = ?
Result block: 121000

###

- System: human ABCG2
- Construct: expressed in transfected cells; host or cells: MDCK-II cells stably transduced with hABCG2 cDNA (made in the authors' institute)
- Method Description: Transepithelial transport, MDCK-II cells transduced with hABCG2
- Type: in vitro ADME
- Condition Context: pH 7.4, with zosuquidar 5 µM, MDCK-II hABCG2, 5 µM, + zosuquidar 5 µM, read-out: efflux transport ratio r
Recorded Metric: efflux ratio at 8 h, 5 µM
Give bare numbers.

Query block: Entry C[C@H]1CNC(=O)c2cnn3ccc(nc23)N[C@H](C)c2cc(F)ccc2O1 [repotrectinib] : reported efflux ratio at 8 h, 5 µM = ?
Result block: 5.6

###

- Method Description: 8-h pilot oral plasma pharmacokinetics and tissue distribution, female wild-type, Abcb1a/1b;Abcg2−/− and Oatp1a/1b−/− mice
- Format: in vivo
- Condition Context: female, FVB, mouse, plasma, po, 10 mg/kg, Table S1; female wild-type mice, 10 mg/kg oral, 8 h
Recorded Metric: Cmax (ng/mL)
One number for each entry, in ng/mL.

Query block: Entry C[C@H]1CNC(=O)c2cnn3ccc(nc23)N[C@H](C)c2cc(F)ccc2O1 [repotrectinib] : reported Cmax = ?
Result block: 4800

###

- Method Description: 4-h oral plasma pharmacokinetics and tissue distribution, male wild-type and ABC transporter knockout mice
- Type: in vivo
- Condition Context: male, FVB, mouse, small intestinal content, po, 10 mg/kg, male wild-type mice, 10 mg/kg oral, 4 h; read-out: SIC (%)-to-plasma ratio
Recorded Metric: Kp at 4 h
Give bare numbers.

Query block: Entry C[C@H]1CNC(=O)c2cnn3ccc(nc23)N[C@H](C)c2cc(F)ccc2O1 [repotrectinib] : reported Kp at 4 h = ?
Result block: 0.00879

###

- Method Description: 8-h pilot oral plasma pharmacokinetics and tissue distribution, female wild-type, Abcb1a/1b;Abcg2−/− and Oatp1a/1b−/− mice
- Format: in vivo
- Condition Context: female, FVB, mouse, brain, po, 10 mg/kg, Table S1; female wild-type mice, 10 mg/kg oral, 8 h; read-out: Brain-to-plasma ratio
Recorded Metric: Kp at 8 h
One number for each entry.

Query block: Entry `C[C@H]1CNC(=O)c2cnn3ccc(nc23)N[C@H](C)c2cc(F)ccc2O1` : reported Kp at 8 h = ?
Result block: 0.26

###

- Method Description: 8-h pilot oral plasma pharmacokinetics and tissue distribution, female wild-type, Abcb1a/1b;Abcg2−/− and Oatp1a/1b−/− mice
- Format: in vivo
- Condition Context: female, FVB, mouse, liver, po, 10 mg/kg, Table S1; female wild-type mice, 10 mg/kg oral, 8 h; read-out: Cliver
- From the text: Mice with similar average ages (and body weights) were randomly allocated in experimental groups as far as possible. […] Given the objective main readout (repotrectinib plasma and tissue concentrations as measured by LC-MS/MS), no blinding method was applied. […] A sensitive and specific liquid chromatography-tandem mass spectrometry method using protein precipitation pre-treatment was adopted to quantify the concentration of repotrectinib in DMEM medium, plasma samples and tissue homogenates. […]
Recorded Metric: concentration at 8 h
# do not omit the unit; it follows the number

Query block: Entry `C[C@H]1CNC(=O)c2cnn3ccc(nc23)N[C@H](C)c2cc(F)ccc2O1` : reported concentration at 8 h = ?
Result block: 1220 ng/mL

###

- Method Description: 4-h oral plasma pharmacokinetics and tissue distribution, male wild-type and ABC transporter knockout mice
- Format: in vivo
- Condition Context: male, FVB, mouse, brain, po, 10 mg/kg, male wild-type mice, 10 mg/kg oral, 4 h; read-out: Cbrain
Recorded Metric: concentration at 4 h (ng/g)
Give bare numbers, in ng/g.

Query block: Entry C[C@H]1CNC(=O)c2cnn3ccc(nc23)N[C@H](C)c2cc(F)ccc2O1 [repotrectinib] : reported concentration at 4 h = ?
Result block: 95.1
